# Target of assay: JAK3 (Homo sapiens, UniProt P52333)
# Sequence (P52333 whole entry): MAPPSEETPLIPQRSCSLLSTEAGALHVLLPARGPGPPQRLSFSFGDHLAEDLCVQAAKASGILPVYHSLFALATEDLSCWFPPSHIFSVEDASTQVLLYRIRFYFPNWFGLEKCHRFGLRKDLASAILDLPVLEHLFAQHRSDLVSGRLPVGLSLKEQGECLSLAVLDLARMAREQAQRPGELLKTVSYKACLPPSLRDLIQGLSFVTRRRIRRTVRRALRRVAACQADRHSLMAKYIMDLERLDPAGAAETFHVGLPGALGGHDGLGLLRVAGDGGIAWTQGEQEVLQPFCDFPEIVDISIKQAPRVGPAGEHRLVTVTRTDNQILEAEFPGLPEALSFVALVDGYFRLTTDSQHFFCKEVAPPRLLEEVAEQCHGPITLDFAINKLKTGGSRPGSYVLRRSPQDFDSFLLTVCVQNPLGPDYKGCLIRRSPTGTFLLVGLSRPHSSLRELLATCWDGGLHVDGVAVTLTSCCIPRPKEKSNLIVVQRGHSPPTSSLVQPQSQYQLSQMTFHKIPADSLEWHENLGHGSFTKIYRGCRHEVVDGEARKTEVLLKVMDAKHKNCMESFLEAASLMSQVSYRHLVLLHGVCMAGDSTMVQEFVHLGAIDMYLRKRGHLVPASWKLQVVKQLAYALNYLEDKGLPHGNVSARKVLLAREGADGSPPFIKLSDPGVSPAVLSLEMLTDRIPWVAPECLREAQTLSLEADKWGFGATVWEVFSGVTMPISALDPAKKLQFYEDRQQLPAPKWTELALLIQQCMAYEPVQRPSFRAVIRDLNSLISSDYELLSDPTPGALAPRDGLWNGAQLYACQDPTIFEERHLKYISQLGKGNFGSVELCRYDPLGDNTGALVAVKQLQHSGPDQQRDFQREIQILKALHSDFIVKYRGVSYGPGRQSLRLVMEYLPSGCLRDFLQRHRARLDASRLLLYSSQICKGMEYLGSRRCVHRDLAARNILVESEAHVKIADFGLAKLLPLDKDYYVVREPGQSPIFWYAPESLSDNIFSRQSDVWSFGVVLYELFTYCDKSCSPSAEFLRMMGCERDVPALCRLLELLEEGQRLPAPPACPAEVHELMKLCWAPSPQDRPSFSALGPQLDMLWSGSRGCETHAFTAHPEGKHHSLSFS
# Procedure details: Inhibition of a panel of kinases, in vitro HotSpot kinase assay: JAK3
# Type: biochemical
# Condition context: D-compounds panel data; 1 μM ATP; read-out: IC50 JAK3
pIC50: −log10 of the molar value.
Outcome measure: pIC50

stdin: Query (compound): C[C@@H]1[C@H](NC(=O)c2ccc(C3CC3)cc2)CCCN1c1cnc(C(N)=O)c(Nc2ccc(N3CCN(C)CC3)cc2F)n1 ; field requested: pIC50
stdout: < 5.00

stdin: pIC50 for C[C@@H]1[C@H](NC(=O)c2ccc(C3(CO)CC3)cc2)CCCN1c1cnc(C(N)=O)c(Nc2cnn(C)c2)n1 ?
stdout: 5.00 to 6.00

stdin: What value of measured pIC50 is listed for C[C@@H]1[C@H](NC(=O)c2ccc(C3CC3)cc2)CCCN1c1cnc(C(N)=O)c(Nc2cnn(C3CCN(C(=O)C4(C)COC4)CC3)c2)n1 ?
stdout: 5.00 to 6.00

Origin of measurements: patent US20210070748A1
